# Assay details: Preliminary pharmacokinetics in trial 1403-0001 (Arm A D1 q3w, Arm B D1 D8 q4w)
# Type: in vivo, human
# Experimental parameters: human, plasma, oral; Arm A D1 q3w, 30 mg, N=3; read-out: t1/2 (gMean) (converted)
Endpoint: half-life
Number first, unit second: that is the form wanted.

Item Cc1c(C(=O)O)ccc2c3n(nc12)[C@@H]1[C@H](C3)N(CC2CC2)[C@@]2(C(=O)Nc3cc(Cl)ccc32)[C@H]1c1cccc(Cl)c1F [MDM2-antagonist of formula I] has what recorded half-life?
36.4 h

---

# Assay details: Preliminary pharmacokinetics in trial 1403-0001 (Arm A D1 q3w, Arm B D1 D8 q4w)
# Type: in vivo, human
# Experimental parameters: human, plasma, oral, 30 mg, Day 8, D1 D8 q4w (Arm B), gMean, N=3; read-out: t1/2 (converted)
Endpoint: half-life (h)
Give the number; h is assumed, so skip it.

Item Cc1c(C(=O)O)ccc2c3n(nc12)[C@@H]1[C@H](C3)N(CC2CC2)[C@@]2(C(=O)Nc3cc(Cl)ccc32)[C@H]1c1cccc(Cl)c1F has what recorded half-life?
39.5

---

# Assay details: Preliminary pharmacokinetics in trial 1403-0001 (Arm A D1 q3w, Arm B D1 D8 q4w)
# Assay type: in vivo, human
# Experimental parameters: human, plasma, oral, 45 mg, Day 1, D1 D8 q4w (Arm B), median, N=2; read-out: tmax
Endpoint: Tmax
Number first, unit second: that is the form wanted.

Item Cc1c(C(=O)O)ccc2c3n(nc12)[C@@H]1[C@H](C3)N(CC2CC2)[C@@]2(C(=O)Nc3cc(Cl)ccc32)[C@H]1c1cccc(Cl)c1F has what recorded Tmax?
4 h

---

# Assay details: Preliminary pharmacokinetics in trial 1403-0001 (Arm A D1 q3w, Arm B D1 D8 q4w)
# Type: in vivo, human
# Experimental parameters: human, plasma, oral, 80 mg, Arm A D1 q3w, 80 mg, N=2; read-out: tmax (median)
Endpoint: Tmax (h)
Give the number; h is assumed, so skip it.

Item Cc1c(C(=O)O)ccc2c3n(nc12)[C@@H]1[C@H](C3)N(CC2CC2)[C@@]2(C(=O)Nc3cc(Cl)ccc32)[C@H]1c1cccc(Cl)c1F [MDM2-antagonist of formula I] has what recorded Tmax?
3.5

---

# Assay details: Preliminary pharmacokinetics in trial 1403-0001 (Arm A D1 q3w, Arm B D1 D8 q4w)
# Type: in vivo, human
# Experimental parameters: human, plasma, oral, 60 mg, Day 1, D1 D8 q4w (Arm B), gMean, N=2; read-out: AUC0-∞
Endpoint: AUC(0-inf) (µM·h)
Give the number; µM·h is assumed, so skip it.

Item Cc1c(C(=O)O)ccc2c3n(nc12)[C@@H]1[C@H](C3)N(CC2CC2)[C@@]2(C(=O)Nc3cc(Cl)ccc32)[C@H]1c1cccc(Cl)c1F has what recorded AUC(0-inf)?
87.7

---

# Assay details: Human therapeutic dose prediction
# Experimental parameters: oral, 64 mg; QW dosing in humans, corrected for plasma protein binding human vs mouse; read-out: effective AUC0-168
Endpoint: AUC(0-t)
Number first, unit second: that is the form wanted.

Item Cc1c(C(=O)O)ccc2c3n(nc12)[C@@H]1[C@H](C3)N(CC2CC2)[C@@]2(C(=O)Nc3cc(Cl)ccc32)[C@H]1c1cccc(Cl)c1F [MDM2-antagonist of formula I] has what recorded AUC(0-t)?
11.3 µM·h

---

# Assay details: Preliminary pharmacokinetics in trial 1403-0001 (Arm A D1 q3w, Arm B D1 D8 q4w)
# Format: in vivo, human
# Experimental parameters: human, plasma, oral, 20 mg, Day 8, D1 D8 q4w (Arm B), gMean, N=3; read-out: Cmax
# Excerpt: Preliminary PK data were available from the first 45 treated patients in study 1403-0001. The exploratory PK analysis is based on planned blood sampling time-points and the results are subject to change because not all samples from these patients have been analyzed yet. Therefore, AUCs may be incomplete. […]
Endpoint: Cmax (nM)
Give the number; nM is assumed, so skip it.

Item Cc1c(C(=O)O)ccc2c3n(nc12)[C@@H]1[C@H](C3)N(CC2CC2)[C@@]2(C(=O)Nc3cc(Cl)ccc32)[C@H]1c1cccc(Cl)c1F has what recorded Cmax?
1220

---

# Assay details: Preliminary pharmacokinetics in trial 1403-0001 (Arm A D1 q3w, Arm B D1 D8 q4w)
# Format: in vivo, human
# Experimental parameters: human, plasma, oral, 15 mg, Day 8, D1 D8 q4w (Arm B), gMean, N=2; read-out: AUC0-∞
Endpoint: AUC(0-inf) (µM·h)
Give the number; µM·h is assumed, so skip it.

Item Cc1c(C(=O)O)ccc2c3n(nc12)[C@@H]1[C@H](C3)N(CC2CC2)[C@@]2(C(=O)Nc3cc(Cl)ccc32)[C@H]1c1cccc(Cl)c1F [MDM2-antagonist of formula I] has what recorded AUC(0-inf)?
25.8

---

# Assay details: Preliminary pharmacokinetics in trial 1403-0001 (Arm A D1 q3w, Arm B D1 D8 q4w)
# Assay type: in vivo, human
# Experimental parameters: human, plasma, oral, 30 mg, Day 1, D1 D8 q4w (Arm B), median, N=4; read-out: tmax
Endpoint: Tmax (h)
Give the number; h is assumed, so skip it.

Item Cc1c(C(=O)O)ccc2c3n(nc12)[C@@H]1[C@H](C3)N(CC2CC2)[C@@]2(C(=O)Nc3cc(Cl)ccc32)[C@H]1c1cccc(Cl)c1F has what recorded Tmax?
4.5

---

# Assay details: Preliminary pharmacokinetics in trial 1403-0001 (Arm A D1 q3w, Arm B D1 D8 q4w)
# Format: in vivo, human
# Experimental parameters: human, plasma, oral, 15 mg, Day 8, D1 D8 q4w (Arm B), gMean, N=2; read-out: Vz/F
# From the text: Preliminary PK data were available from the first 45 treated patients in study 1403-0001. The exploratory PK analysis is based on planned blood sampling time-points and the results are subject to change because not all samples from these patients have been analyzed yet. Therefore, AUCs may be incomplete. […]
Endpoint: Vd/F (L)
Give the number; L is assumed, so skip it.

Item Cc1c(C(=O)O)ccc2c3n(nc12)[C@@H]1[C@H](C3)N(CC2CC2)[C@@]2(C(=O)Nc3cc(Cl)ccc32)[C@H]1c1cccc(Cl)c1F has what recorded Vd/F?
37.3

---

# Assay details: Preliminary pharmacokinetics in trial 1403-0001 (Arm A D1 q3w, Arm B D1 D8 q4w)
# Format: in vivo, human
# Experimental parameters: human, plasma, oral, 15 mg, Day 1, D1 D8 q4w (Arm B), gMean, N=3; read-out: Vz/F
# Source text: Preliminary PK data were available from the first 45 treated patients in study 1403-0001. The exploratory PK analysis is based on planned blood sampling time-points and the results are subject to change because not all samples from these patients have been analyzed yet. Therefore, AUCs may be incomplete. […]
Endpoint: Vd/F (L)
Give the number; L is assumed, so skip it.

Item Cc1c(C(=O)O)ccc2c3n(nc12)[C@@H]1[C@H](C3)N(CC2CC2)[C@@]2(C(=O)Nc3cc(Cl)ccc32)[C@H]1c1cccc(Cl)c1F has what recorded Vd/F?
32.3

---

# Assay details: Preliminary pharmacokinetics in trial 1403-0001 (Arm A D1 q3w, Arm B D1 D8 q4w)
# Format: in vivo, human
# Experimental parameters: human, plasma, oral, 20 mg, Day 8, D1 D8 q4w (Arm B), gMean, N=3; read-out: t1/2 (converted)
Endpoint: half-life (min)
Give the number; min is assumed, so skip it.

Item Cc1c(C(=O)O)ccc2c3n(nc12)[C@@H]1[C@H](C3)N(CC2CC2)[C@@]2(C(=O)Nc3cc(Cl)ccc32)[C@H]1c1cccc(Cl)c1F has what recorded half-life?
2290

---

# Assay details: Preliminary pharmacokinetics in trial 1403-0001 (Arm A D1 q3w, Arm B D1 D8 q4w)
# Type: in vivo, human
# Experimental parameters: human, plasma, oral, 45 mg, Day 1, D1 D8 q4w (Arm B), gMean, N=2; read-out: Cmax
Endpoint: Cmax (nM)
Give the number; nM is assumed, so skip it.

Item Cc1c(C(=O)O)ccc2c3n(nc12)[C@@H]1[C@H](C3)N(CC2CC2)[C@@]2(C(=O)Nc3cc(Cl)ccc32)[C@H]1c1cccc(Cl)c1F [MDM2-antagonist of formula I] has what recorded Cmax?
2330

---

# Assay details: Preliminary pharmacokinetics in trial 1403-0001 (Arm A D1 q3w, Arm B D1 D8 q4w)
# Type: in vivo, human
# Experimental parameters: human, plasma, oral, 30 mg, Day 1, D1 D8 q4w (Arm B), gMean, N=4; read-out: Cmax
Endpoint: Cmax (nM)
Give the number; nM is assumed, so skip it.

Item Cc1c(C(=O)O)ccc2c3n(nc12)[C@@H]1[C@H](C3)N(CC2CC2)[C@@]2(C(=O)Nc3cc(Cl)ccc32)[C@H]1c1cccc(Cl)c1F has what recorded Cmax?
1440
